assay-summary: Compound was evaluated for the partition coefficient (octanol/pH 7.4 buffer)
Assay type: physicochemical
Measured logD by item

Example cases with answers are listed next.
Data request, read-out logD, for O=C(O)Cc1nn(Cc2nc3cc(C(F)(F)F)ccc3s2)c(=O)c2ccccc12
0.55

What about O=C(O)Cc1nn(Cc2nc3cc(F)ccc3s2)c(=O)c2ccccc12 ?
-0.3

Pending compound:
Could you tell me which logD is on file for O=C(O)Cc1nn(Cc2nc3cc(F)cc(F)c3s2)c(=O)c2ccccc12 ?
0.05

###

assay-summary: Compound was evaluated for the apparent pKa (dioxane/water) in the ratio 1:1
Format: physicochemical
condition-description: dioxane/water 1:1
Here the recorded pKa is given for each entry.
Would you mind answering with just the numeric figure?

Use the examples below as a reference point.
May I ask what pKa has been recorded for O=C(O)Cc1nn(Cc2nc3cc(C(F)(F)F)ccc3s2)c(=O)c2ccccc12 ?
5.46

Now this one: O=C(O)Cc1nn(Cc2nc3cc(F)cc(F)c3s2)c(=O)c2ccccc12
5.47

Further cases:
Can you share its pKa? I mean this compound: O=C(O)Cc1nn(Cc2nc3cc(F)ccc3s2)c(=O)c2ccccc12
5.49

Note, next up: O=C(O)c1nnc(O)c2ccccc12
5.49

###

assay-summary: Partition coefficient (logP)
Assay type: physicochemical
condition-description: octanol/water
quantity-kind: logP

As a guide, the following entries are already answered.
Look up logP for this molecule: O=C(O)c1nnc(O)c2ccccc12
2.42

Then O=C(O)Cc1nn(Cc2nc3cc(F)ccc3s2)c(=O)c2ccccc12 ?
2.42

Then what about the molecule O=C(O)Cc1nn(Cc2nc3cc(F)cc(F)c3s2)c(=O)c2ccccc12 ?
3.01

Next molecule: O=C(O)Cc1nn(Cc2nc3cc(Br)ccc3s2)c(=O)c2ccccc12
3.35

Continue with the molecule presented below.
// lookup logP for O=C(O)Cc1nn(Cc2nc3cc(C(F)(F)F)ccc3s2)c(=O)c2ccccc12 [ZOPOLRESTAT]
3.43

###

Readings of pIC50 for the listed molecules
measured-target: Aldo-keto reductase family 1 member B1 (Homo sapiens, UniProt P15121)
assay-summary: Inhibition of aldose reductase (aldo-keto reductase, AKR1B1) isolated from human placenta.
// scale note: pIC50 = -log10(conc_M); give the bare number

A selection of reference data follows.
For Aldo-keto reductase family 1 member B1 (Homo sapiens, UniProt P15121), provide pIC50 of COc1cc(OC)c2sc(Cn3nc(CC(=O)O)c4ccccc4c3=O)nc2c1 please.
6.15

Let us now turn to O=C(O)Cc1nn(Cc2nc3ccccc3s2)c(=O)c2ccc([N+](=O)[O-])cc12
7.34

New cases:
Query pIC50 on Aldo-keto reductase family 1 member B1 (Homo sapiens, UniProt P15121) for O=C(O)Cc1nn(Cc2nc3cc(Cl)c(F)cc3s2)c(=O)c2ccccc12
6.96

Proceed to O=C(O)Cc1nn(Cc2nc3cc(Cl)cc(Cl)c3s2)c(=O)c2ccccc12
8.40

Next: O=C(O)Cc1nn(Cc2nc3cc(F)cc(C(F)(F)F)c3s2)c(=O)c2ccccc12
7.00

Another molecule: CSc1ccc2sc(Cn3nc(CC(=O)O)c4ccccc4c3=O)nc2c1
7.22

Field entry: O=C(O)Cc1nn(Cc2nc3cccnc3s2)c(=O)c2ccccc12
8.00

###

Tested on: aldose reductase (Rattus norvegicus)
assay-summary: In vivo inhibition of sorbitol accumulation in the rat following 10 mg/kg p.o. administration.
condition-description: at 10 mg/kg
quantity-kind: inhibition (%)
Reply with just the number (in %).

I am curious: what inhibition value has been reported for CC(c1nc2cc(Cl)ccc2s1)n1nc(CC(=O)O)c2ccccc2c1=O (stereo unspecified) ?
53

// below: inhibition requested for another compound
Return reported inhibition; argument: O=C(O)Cc1nn(Cc2nc3cc(C(F)(F)F)cc(Cl)c3s2)c(=O)c2ccccc12
26

Value source: ChEMBL document CHEMBL1125712
